From: patent US20260306527A1

The entries below are paired with their reported inhibition at 10 µM.
Biological target: PRMT8 (Homo sapiens)
Assay: radioactive assay (Reaction Biology Corp.), inhibition of PRMT8
Type: biochemical
Method: Next, the inhibition activity of the library was investigated for five PRMT members from type I PRMTs. The PRMT 4, 6 and 8 methylation assays were performed by Reaction Biology corp.
Don't forget the unit after the number, please.

Worked cases, answers included:
N=C(NCCSC[C@H]1O[C@@H](n2cnc3c(N)ncnc32)[C@H](O)[C@@H]1O)NCc1ccccc1 | 76%
Nc1cccc(-c2cccc(CNCCSC[C@H]3O[C@@H](n4cnc5c(N)ncnc54)[C@H](O)[C@@H]3O)c2)c1 [Compound 10l] | 62%
N=C(NCCCSC[C@H]1O[C@@H](n2cnc3c(NCCCc4ccccc4)ncnc32)[C@H](O)[C@@H]1O)NCc1ccccc1 [Compound 19k] | 83%

Answer with inhibition at 10 µM of `Nc1ncnc2c1ncn2[C@@H]1O[C@H](CSCCNC(=O)NCCCc2ccccc2)[C@@H](O)[C@H]1O` measured for PRMT8 (Homo sapiens).
-4%

Report value only: inhibition at 10 µM, PRMT8 (Homo sapiens), Nc1ncnc2c1ncn2[C@@H]1O[C@H](CSCCNCc2cccc(-c3cncnc3)c2)[C@@H](O)[C@H]1O [Compound 10g]
36%

Report inhibition at 10 µM under test system PRMT8 (Homo sapiens) for `Nc1ncnc2c1ncn2[C@@H]1O[C@H](CSCCNC(=O)NCc2ccc(-c3cccc(O)c3)cc2)[C@@H](O)[C@H]1O` .
15%

Give PRMT8 (Homo sapiens) inhibition at 10 µM for the following compound: N=C(NCCCN)NCCCSC[C@H]1O[C@@H](n2cnc3c(NCCCc4ccccc4)ncnc32)[C@H](O)[C@@H]1O [Compound 19i]
74%

* * *

Target: PRMT6 (Homo sapiens)
Sequence (Q96LA8 whole entry, species assumed): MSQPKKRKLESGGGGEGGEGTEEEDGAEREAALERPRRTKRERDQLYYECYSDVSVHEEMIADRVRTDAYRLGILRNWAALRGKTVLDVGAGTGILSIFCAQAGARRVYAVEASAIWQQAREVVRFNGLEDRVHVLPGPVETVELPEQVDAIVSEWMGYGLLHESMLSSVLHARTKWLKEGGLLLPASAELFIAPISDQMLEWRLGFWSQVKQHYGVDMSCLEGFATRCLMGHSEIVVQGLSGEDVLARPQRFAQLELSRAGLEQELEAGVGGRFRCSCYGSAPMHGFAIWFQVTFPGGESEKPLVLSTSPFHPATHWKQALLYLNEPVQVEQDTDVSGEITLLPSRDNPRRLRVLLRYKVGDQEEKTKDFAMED
Assay: radioactive assay (Reaction Biology Corp.), inhibition of PRMT6
Type: biochemical
Decision: inhibition at 10 µM >= 20% yields Condition met, all other cases yield Condition not met.

Some solved entries appear below for comparison.
N=C(NCCSC[C@H]1O[C@@H](n2cnc3c(N)ncnc32)[C@H](O)[C@@H]1O)Nc1ccccc1 | Condition met
Nc1ncnc2c1ncn2[C@@H]1O[C@H](CSCCCNCc2cccc(-c3ccc(Cl)cc3)c2)[C@@H](O)[C@H]1O [Compound 10m] | Condition met
COc1cc2nc(-c3ccoc3)nc(NCCSC[C@H]3O[C@@H](n4cnc5c(N)ncnc54)[C@H](O)[C@@H]3O)c2cc1OC [Compound 12d] | Condition not met
Nc1ncnc2c1ncn2[C@@H]1O[C@H](CSCCCNC(=O)NCc2ccccc2)[C@@H](O)[C@H]1O | Condition met
Nc1ncnc2c1ncn2[C@@H]1O[C@H](CSCCNC(=O)NCCCc2ccccc2)[C@@H](O)[C@H]1O | Condition not met

Determine whether measured inhibition at 10 µM meets or exceeds 20% for COc1cc2nc(-c3cccc(O)c3)nc(NCCSC[C@H]3O[C@@H](n4cnc5c(N)ncnc54)[C@H](O)[C@@H]3O)c2cc1OC [Compound 12g]
Condition not met

Reported inhibition at 10 µM at or above 20%? `Nc1ncnc2c1ncn2[C@@H]1O[C@H](CSCCNC(=O)Nc2ccc(F)cc2)[C@@H](O)[C@H]1O`
Condition not met

* * *

Here, each record is paired with measured inhibition at 10 µM data.
Target: PRMT8 (Homo sapiens, UniProt Q9NR22)
Sequence (Q9NR22 whole entry, species assumed): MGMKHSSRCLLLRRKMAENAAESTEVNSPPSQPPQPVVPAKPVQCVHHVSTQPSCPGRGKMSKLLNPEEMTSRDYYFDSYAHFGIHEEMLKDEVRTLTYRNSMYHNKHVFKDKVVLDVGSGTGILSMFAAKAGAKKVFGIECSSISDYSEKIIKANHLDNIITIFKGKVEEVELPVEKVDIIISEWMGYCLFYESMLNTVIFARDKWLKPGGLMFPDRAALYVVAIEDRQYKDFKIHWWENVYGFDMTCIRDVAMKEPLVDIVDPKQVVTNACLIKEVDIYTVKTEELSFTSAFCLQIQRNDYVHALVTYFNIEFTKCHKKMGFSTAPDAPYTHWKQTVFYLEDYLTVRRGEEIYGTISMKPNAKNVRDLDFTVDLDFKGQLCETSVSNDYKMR
Assay: radioactive assay (Reaction Biology Corp.), inhibition of PRMT8
Type: biochemical
API: value field is a number in %; no unit string.

Known results for compounds:
Nc1ncnc2c1ncn2[C@@H]1O[C@H](CSCCCNCc2cccc(-c3cccc(F)c3)c2)[C@@H](O)[C@H]1O [Compound 10q] | 66
N=C(NCCCSC[C@H]1O[C@@H](n2cnc3c(NCCCc4ccccc4)ncnc32)[C@H](O)[C@@H]1O)NCCCc1ccccc1 [Compound 19m] | 85
Nc1ncnc2c1ncn2[C@@H]1O[C@H](CSCCOc2ccc(-c3ccc(O)cc3)cc2)[C@@H](O)[C@H]1O [Compound 14b] | 20
Nc1ncnc2c1ncn2[C@@H]1O[C@H](CSCCCNCc2cccc(-c3ccc(F)c(O)c3)c2)[C@@H](O)[C@H]1O [Compound 10r] | 72
Nc1ncnc2c1ncn2[C@@H]1O[C@H](CSCCNC(=O)Nc2ccc(Cl)cc2)[C@@H](O)[C@H]1O | -1
CCNC(=O)NCCSC[C@H]1O[C@@H](n2cnc3c(N)ncnc32)[C@H](O)[C@@H]1O | 14
N=C(NCCCSC[C@H]1O[C@@H](n2cnc3c(N)ncnc32)[C@H](O)[C@@H]1O)Nc1cccc(-c2cccc([N+](=O)[O-])c2)c1 | 100
COc1cc2nc(-c3ccc(N)cc3)nc(NCCSC[C@H]3O[C@@H](n4cnc5c(N)ncnc54)[C@H](O)[C@@H]3O)c2cc1OC [Compound 12j] | 21
COc1cc2nc(-c3ccc(F)c(O)c3)nc(NCCSC[C@H]3O[C@@H](n4cnc5c(N)ncnc54)[C@H](O)[C@@H]3O)c2cc1OC [Compound 12f] | 21
Nc1ncnc2c1ncn2[C@@H]1O[C@H](CSCCCNCc2cccc(-c3ccc(Cl)cc3)c2)[C@@H](O)[C@H]1O [Compound 10m] | 73

Read the entry `Nc1ncnc2c1ncn2[C@@H]1O[C@H](CSCCCNC(=O)NCc2ccc3c(c2)OCO3)[C@@H](O)[C@H]1O` and write its reported inhibition at 10 µM.
7

Using known records, supply inhibition at 10 µM for Nc1ncnc2c1ncn2[C@@H]1O[C@H](CSCCNCc2cccc(-c3ccccc3O)c2)[C@@H](O)[C@H]1O [Compound 10j]
56

Provide measured inhibition at 10 µM value, entry: `N=C(NCCCSC[C@H]1O[C@@H](n2cnc3c(N)ncnc32)[C@H](O)[C@@H]1O)Nc1cccc(-c2ccoc2)c1`
98

Recall and state the measured inhibition at 10 µM for `N=C(NCCCSC[C@H]1O[C@@H](n2cnc3c(N)ncnc32)[C@H](O)[C@@H]1O)Nc1cccc(Br)c1` .
100
